- test-protocol: Plasma protein binding in CD-1 mouse at 1 to 10 uM by LC-MS analysis
- Type: ADME, cell-free
- condition: dose 1-10 µM, read-out: PPB
readout-kind: fraction unbound at up to 10 µM

> print(dat)
                              line.notation   result
1  O=C(c1cc2cc(Br)ccc2o1)N1CCc2c([nH]c3ccccc23)[C@H]1c1ccc(Cl)cc1  < 0.001

###

- test-protocol: Stability in CD-1 mouse plasma measured after 60 mins LC-MS analysis
- Type: ADME, cell-free
- condition: read-out: Stability
readout-kind: remaining at 1 h (%)

> print(dat)
                              line.notation  readout.number
1  O=C(c1cc2cc(Br)ccc2o1)N1CCc2c([nH]c3ccccc23)[C@H]1c1ccc(Cl)cc1             100

Where these numbers come from: ChEMBL document CHEMBL5036373
